- EXPERIMENT DESCRIPTION: Toxicity liver stage against HepG2, at 10uM
- Format: cell-based
- Set-up: test concentration 10 uM, cell line HepG2-A16-CD81EGFP
- RECORDED CONDITIONS: human, HepG2-A16-CD81EGFP cells; read-out: INHIBITION
Consider the following molecules; for each one, report its cytotoxicity at 10 µM.
Give bare numbers, in %.

Worked examples follow.
{"MOLECULE": "O=C(Nc1ccccc1)C1CN(Cc2cccs2)CC12CCOCC2 (stereo not given)", "cytotoxicity at 10 µM [%]": 3.09}
{"MOLECULE": "Cc1cc(C)n(-c2cncc(NCCNC(=O)C3CCCC3)n2)n1", "cytotoxicity at 10 µM [%]": 3.51}
{"MOLECULE": "Cc1nn(C2CCS(=O)(=O)C2)c(O)c1CCc1ccccc1 (stereo not given)", "cytotoxicity at 10 µM [%]": -50.2}
{"MOLECULE": "Cc1cccc(N2CC3(CCN(Cc4nccn4C)C3)CC2=O)c1 (stereo not given)", "cytotoxicity at 10 µM [%]": -78.6}
{"MOLECULE": "CNC(=O)CN(C)c1cncc(OCC(C)C)n1", "cytotoxicity at 10 µM [%]": 0.137}
{"MOLECULE": "Cc1cccc(OC2CCN(c3nc(N)nc4[nH]cnc34)CC2)c1", "cytotoxicity at 10 µM [%]": 35.4}
{"MOLECULE": "CC(C)c1ccc(C(O)CN2CCN(Cc3nccn3C)CC2)cc1 (stereo not given)", "cytotoxicity at 10 µM [%]": -38.3}
{"MOLECULE": "O=C(NCCn1ccc(-c2ccccn2)n1)C1CC1", "cytotoxicity at 10 µM [%]": 7.49}
{"MOLECULE": "CCOCc1ncn2c1CN(S(=O)(=O)c1ccc(C)cc1)CC2", "cytotoxicity at 10 µM [%]": -0.602}
{"MOLECULE": "Cc1cccc(NC(=O)[C@@H]2CCCN2Cc2nnc(C(C)C)n2C)n1", "cytotoxicity at 10 µM [%]": 5.81}

Each molecule below has a reported value. Please supply its cytotoxicity at 10 µM.
1. CC(C#N)CN(C)Cc1ccc(Cl)c2cccnc12 (stereo not given)
2. Cc1ccc(CN2Cc3nnn(C)c3C(COCC3CC3)C2)s1 (stereo not given)
3. Cc1ccc(S(=O)(=O)NC[C@H]2OC[C@@H](NCc3ccccc3)[C@@H]2O)cc1
4. CC(C)(CO)Nc1cc(-c2ccccc2)ncn1
5. NC(=O)CCc1cccc(C2CCNCC2)n1
6. CCc1cnc(C)nc1N1CCN(C(N)=O)CC1
7. c1nc2c(c(C3CC3)n1)CCN(CC1CCOC1)CC2 (stereo not given)

1. -40.4
2. 4.27
3. -1.73
4. -7.8
5. -3.28
6. -46.3
7. 1.26

For each of the molecules below, state cytotoxicity at 10 µM.
1. CC(C)NC(=O)C1CN(C(=O)CCc2ccccc2)CC12CCOCC2 (stereo not given)
2. O=C(NCCc1cc(N2CCOCC2)nc(NC2CC2)n1)C1CCCO1 (stereo not given)
3. O=C1Nc2ccccc2C12CCN(Cc1cccs1)CC2
4. CN(CCCc1ccccc1)C(=O)CCc1nc(-c2nnc[nH]2)no1

1: -3; 2: 2.61; 3: -0.184; 4: -44.8

Please give cytotoxicity at 10 µM, item by item, for the list that follows.
1. O=C(O)c1csc(NCCc2ccccc2)n1
2. COc1ccc(Cl)cc1-c1nc(N)nc(N)n1
3. COCC1CCCN(C(=O)c2ccc(N(C)Cc3cnn(C)c3)nc2)C1 (stereo not given)
4. CC(C)Oc1cccc(F)c1C(C(=O)O)N1CCCN(C)CC1 (stereo not given)

1. 0.501
2. 1.57
3. -3.97
4. 0.992
